Assay: Biodistribution of ^111In-labeled peptides in B16-F1 melanoma-bearing mice
Type: in vivo, mouse (B6D2F1)
Conditions: female, B6D2F1, mouse, small intestines, iv, total radioactivity; ^111In-labeled peptide, 185 kBq i.v., 48 h; mean ± SEM of three experiments, n = 5 animals each; read-out: Small intestines uptake
Non-standard residues stand in square brackets, D forms with d. Residues, ends and D or L forms follow the SMILES beside them. *: point of attachment. DOTA = O=C(O)CN1CCN(CC(=O)O)CCN(CC(=O)*)CCN(CC(=O)O)CC1; pY = N[C@@H](Cc1ccc(OP(=O)(O)O)cc1)C(=O)O; Nle = CCCC[C@H](N)C(=O)O
Reported values of tissue uptake at 48 h for individual entries
Quantity Name: tissue uptake at 48 h (%ID/g)

molecule="CCCC[C@H](NC(C)=O)C(=O)N[C@@H](CC(=O)O)C(=O)N[C@@H](Cc1c[nH]cn1)C(=O)N[C@H](Cc1ccccc1)C(=O)N[C@@H](CCCNC(=N)N)C(=O)N[C@@H](Cc1c[nH]c2ccccc12)C(=O)NCC(=O)N[C@@H](CCCCNC(=O)CN1CCN(CC(=O)O)CCN(CC(=O)O)CCN(CC(=O)O)CC1)C(=O)N[C@H](CC(=O)O)C(=O)N[C@H](CC(=O)O)C(=O)O [DOTA-NAP-D-Asp-D-Asp] (Ac-[Nle]DH[dF]RWGK(DOTA)[dD][dD]-OH)" measure_unit=%ID/g endpoint_result=0.03
molecule="CCCC[C@H](NC(C)=O)C(=O)N[C@@H](CC(=O)O)C(=O)N[C@@H](Cc1c[nH]cn1)C(=O)N[C@H](Cc1ccccc1)C(=O)N[C@@H](CCCNC(=N)N)C(=O)N[C@@H](Cc1c[nH]c2ccccc12)C(=O)NCC(=O)N[C@@H](CCCCNC(=O)CN1CCN(CC(=O)O)CCN(CC(=O)O)CCN(CC(=O)O)CC1)C(N)=O [DOTA-NAP-amide, reference compound]" measure_unit=%ID/g endpoint_result=0.05
molecule="CCCC[C@H](NC(=O)[C@H](Cc1ccc(OP(=O)(O)O)cc1)NC(=O)CNC(=O)CN1CCN(CC(=O)O)CCN(CC(=O)O)CCN(CC(=O)O)CC1)C(=O)N[C@@H](CC(=O)O)C(=O)N[C@@H](Cc1c[nH]cn1)C(=O)N[C@H](Cc1ccccc1)C(=O)N[C@@H](CCCNC(=N)N)C(=O)N[C@@H](Cc1c[nH]c2ccccc12)C(N)=O [DOTA-Phospho-MSH2-9] ({DOTA}-G[pY][Nle]DH[dF]RW-NH2)" measure_unit=%ID/g endpoint_result=0.06

----------
Test: Biodistribution of ^111In-labeled peptides in B16-F1 melanoma-bearing mice
Format: in vivo, mouse (B6D2F1)
Settings: female, B6D2F1 (C57BL/6 × DBA/2F1 hybrids), mouse, muscle, iv, total radioactivity; ^111In-labeled peptide, 185 kBq i.v., 4 h; mean ± SEM of three experiments, n = 5 animals each; read-out: Muscle uptake
Non-standard residues stand in square brackets, D forms with d. Residues, ends and D or L forms follow the SMILES beside them. *: point of attachment. DOTA = O=C(O)CN1CCN(CC(=O)O)CCN(CC(=O)*)CCN(CC(=O)O)CC1; pY = N[C@@H](Cc1ccc(OP(=O)(O)O)cc1)C(=O)O; Nle = CCCC[C@H](N)C(=O)O
Listed next: entries and their corresponding tissue uptake at 4 h.
Quantity Name: tissue uptake at 4 h (%ID/g)

compound="CCCC[C@H](NC(C)=O)C(=O)N[C@@H](CC(=O)O)C(=O)N[C@@H](Cc1c[nH]cn1)C(=O)N[C@H](Cc1ccccc1)C(=O)N[C@@H](CCCNC(=N)N)C(=O)N[C@@H](Cc1c[nH]c2ccccc12)C(=O)NCC(=O)N[C@@H](CCCCNC(=O)CN1CCN(CC(=O)O)CCN(CC(=O)O)CCN(CC(=O)O)CC1)C(N)=O [DOTA-NAP-amide, reference compound]" endpoint_result=0.05
compound="CCCC[C@H](NC(C)=O)C(=O)N[C@@H](CC(=O)O)C(=O)N[C@@H](Cc1c[nH]cn1)C(=O)N[C@H](Cc1ccccc1)C(=O)N[C@@H](CCCNC(=N)N)C(=O)N[C@@H](Cc1c[nH]c2ccccc12)C(=O)NCC(=O)N[C@@H](CCCCNC(=O)CN1CCN(CC(=O)O)CCN(CC(=O)O)CCN(CC(=O)O)CC1)C(=O)N[C@H](CC(=O)O)C(=O)N[C@H](CC(=O)O)C(=O)O [DOTA-NAP-D-Asp-D-Asp] (Ac-[Nle]DH[dF]RWGK(DOTA)[dD][dD]-OH)" endpoint_result=0.02
compound="CCCC[C@H](NC(=O)[C@H](Cc1ccc(OP(=O)(O)O)cc1)NC(=O)CNC(=O)CN1CCN(CC(=O)O)CCN(CC(=O)O)CCN(CC(=O)O)CC1)C(=O)N[C@@H](CC(=O)O)C(=O)N[C@@H](Cc1c[nH]cn1)C(=O)N[C@H](Cc1ccccc1)C(=O)N[C@@H](CCCNC(=N)N)C(=O)N[C@@H](Cc1c[nH]c2ccccc12)C(N)=O [DOTA-Phospho-MSH2-9] ({DOTA}-G[pY][Nle]DH[dF]RW-NH2)" endpoint_result=0.02
